PROTOCOL NOTES: Antioxidant activity assessed as DPPH radical scavenging activity incubated for 30 mins by spectrophotometric analysis
Format: functional
So basically, if IC50 comes in under 20 µM it's satisfied, and if it's 20 µM or more it's not satisfied.

COMPOUND STRING | LABEL CLASS
COc1cc(CCc2ccc(O)c(O)c2)cc(O)c1O | satisfied
COc1cc(CCc2cc(OC)c(OC)c(OC)c2)ccc1O | not satisfied
CCO[C@@H](Cc1ccc(O)cc1)c1cc(O)c(O)c(OC)c1 | not satisfied
COc1cccc(CCc2cc(O)c(O)c(OC)c2)c1 | not satisfied
COc1ccc(CCc2cc(OC)c3c(c2)O[C@H](c2cc(O)c(O)c(OC)c2)[C@@H](c2ccc(OC)cc2)O3)cc1 | not satisfied
O=C1O[C@H]([C@@H](O)CO)C(O)=C1O | not satisfied
COc1cc([C@H](Cc2ccc(O)cc2)OC)cc(O)c1O | not satisfied
COc1cc(CCc2cc(OC)c(O)c(OC)c2)ccc1O | satisfied

###

STUDY TARGET: Nitric oxide synthase, inducible (Homo sapiens, UniProt P35228)
Sequence (P35228 whole entry): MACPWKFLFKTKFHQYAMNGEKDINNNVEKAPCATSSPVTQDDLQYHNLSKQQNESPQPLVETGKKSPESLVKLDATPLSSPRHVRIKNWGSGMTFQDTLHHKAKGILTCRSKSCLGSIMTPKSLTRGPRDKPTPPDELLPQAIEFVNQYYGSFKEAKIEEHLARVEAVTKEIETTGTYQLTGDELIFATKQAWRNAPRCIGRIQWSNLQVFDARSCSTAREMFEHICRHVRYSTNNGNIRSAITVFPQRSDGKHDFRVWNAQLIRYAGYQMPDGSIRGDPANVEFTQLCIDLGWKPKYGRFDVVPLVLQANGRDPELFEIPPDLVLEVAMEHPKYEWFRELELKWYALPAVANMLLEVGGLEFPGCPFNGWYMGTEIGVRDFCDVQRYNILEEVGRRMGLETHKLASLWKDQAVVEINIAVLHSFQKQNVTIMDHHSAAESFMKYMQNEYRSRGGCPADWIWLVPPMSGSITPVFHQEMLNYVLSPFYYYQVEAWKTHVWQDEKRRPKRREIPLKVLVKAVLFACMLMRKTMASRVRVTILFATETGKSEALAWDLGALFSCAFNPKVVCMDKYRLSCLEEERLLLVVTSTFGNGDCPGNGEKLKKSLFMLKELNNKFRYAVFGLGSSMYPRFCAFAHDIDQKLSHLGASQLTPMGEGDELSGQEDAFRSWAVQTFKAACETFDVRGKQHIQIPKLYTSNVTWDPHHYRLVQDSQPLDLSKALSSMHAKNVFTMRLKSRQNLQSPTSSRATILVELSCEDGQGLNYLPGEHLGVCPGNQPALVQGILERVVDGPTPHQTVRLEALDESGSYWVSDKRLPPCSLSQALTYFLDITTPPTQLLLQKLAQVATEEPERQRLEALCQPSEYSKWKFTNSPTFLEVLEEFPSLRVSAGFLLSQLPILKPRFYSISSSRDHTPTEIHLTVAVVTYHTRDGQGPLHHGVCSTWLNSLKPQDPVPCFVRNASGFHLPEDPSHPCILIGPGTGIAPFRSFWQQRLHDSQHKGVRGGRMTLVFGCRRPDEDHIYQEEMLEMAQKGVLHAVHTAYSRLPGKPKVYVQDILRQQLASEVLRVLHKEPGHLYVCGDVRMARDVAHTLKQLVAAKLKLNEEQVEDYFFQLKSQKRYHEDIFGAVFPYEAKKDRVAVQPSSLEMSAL
Quick reference for IC50 among some compounds
VALUE TYPE: IC50

COMPOUND STRING | RESULT
COc1cc(O)cc(CCc2ccc(O)c(O)c2)c1 | 680 µM
COc1cccc(CCc2ccc(O)c(O)c2)c1O | 434 µM

###

Quick reference for Activity among some molecules
Tested on: PC-12
PROTOCOL NOTES: Neuroprotection against Amyloid beta (25 to 35)-induced toxicity in rat PC-12 cells assessed as increase in cell viability at 10 uM for 24 hrs by MTT assay relative to control
Format: functional

MOLECULE | Activity, %
COc1ccc(CCc2cc(OC)c(OCCC(C)C)c(OC)c2)cc1OC | 50.21
CCC(C)Oc1c(OC)cc(CCc2ccc(OC)c(OC)c2)cc1OC (stereo unspecified) | 49.02
CCCC(CCC)C(=O)Oc1c(OC)cc(CCc2ccc(OC)c(OC)c2)cc1OC | 50.11
COc1ccc(CCc2cc(OC)c(OCc3ccccc3)c(OC)c2)cc1OC | 58.22
COc1ccc(CCc2cc(OC)c(OC(=O)C(C)C)c(OC)c2)cc1OC | 49.34
COc1ccc(CCc2cc(OC)c(O)c(OC)c2)cc1OC | 52.72

###

Test system: PC-12
PROTOCOL NOTES: Neuroprotection against Amyloid beta (25 to 35)-induced toxicity in rat PC-12 cells assessed as increase in cell viability at 10 uM for 24 hrs by MTT assay relative to control
Assay type: functional
Quick reference for Activity among some molecules

MOLECULE | Activity, %
CCCOc1c(OC)cc(CCc2ccc(OC)c(OC)c2)cc1OC | 49.21
CCCCC(=O)Oc1c(OC)cc(CCc2ccc(OC)c(OC)c2)cc1OC | 49.73
COc1ccc(CCc2cc(OC)c(OC(=O)c3ccccc3)c(OC)c2)cc1OC | 58.18
COc1ccc(CCc2cc(OC)c(OCC(C)C)c(OC)c2)cc1OC | 54.53
CCCCC(CC)Oc1c(OC)cc(CCc2ccc(OC)c(OC)c2)cc1OC (stereo unspecified) | 51.03
COc1ccc(CCc2cc(OC)c(OC(=O)CCc3ccccc3)c(OC)c2)cc1OC | 54
CCOc1c(OC)cc(CCc2ccc(OC)c(OC)c2)cc1OC | 53.84
COc1ccc(CCc2cc(OC)c(OC3CCCC3)c(OC)c2)cc1OC | 54.77
COc1ccc(CCc2cc(OC)c(OC(=O)CCC(C)C)c(OC)c2)cc1OC | 49.83
COc1ccc(CCc2cc(OC)c(OC(=O)c3ccc(Cl)cc3)c(OC)c2)cc1OC | 56.41
COc1ccc(CCc2cc(OC)c(OC(=O)c3ccccn3)c(OC)c2)cc1OC | 52.97
CCCCC(C)Oc1c(OC)cc(CCc2ccc(OC)c(OC)c2)cc1OC (stereo unspecified) | 50.67
CCCC(=O)Oc1c(OC)cc(CCc2ccc(OC)c(OC)c2)cc1OC | 54.89
CCC(=O)Oc1c(OC)cc(CCc2ccc(OC)c(OC)c2)cc1OC | 45.31
CCCCOc1c(OC)cc(CCc2ccc(OC)c(OC)c2)cc1OC | 51.79
COc1ccc(CCc2cc(OC)c(OC(=O)c3ccncc3)c(OC)c2)cc1OC | 53.53

Origin of values: ChEMBL document CHEMBL5244253
